Molecular target: G protein-coupled receptor 88 (Homo sapiens)
Sequence (Q9GZN0 whole entry): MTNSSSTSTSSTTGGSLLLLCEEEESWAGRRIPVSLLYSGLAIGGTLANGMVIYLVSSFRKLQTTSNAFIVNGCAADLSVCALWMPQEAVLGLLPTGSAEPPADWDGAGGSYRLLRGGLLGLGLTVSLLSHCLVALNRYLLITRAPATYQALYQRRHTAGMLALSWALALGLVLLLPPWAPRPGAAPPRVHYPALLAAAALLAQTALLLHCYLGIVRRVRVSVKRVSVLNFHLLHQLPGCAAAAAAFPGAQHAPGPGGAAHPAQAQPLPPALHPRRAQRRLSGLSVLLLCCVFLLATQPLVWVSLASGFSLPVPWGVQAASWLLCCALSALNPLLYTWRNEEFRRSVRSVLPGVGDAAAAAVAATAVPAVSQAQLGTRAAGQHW
Assay: Agonist activity at GPR88 (unknown origin) transfected in forskolin-stimulated HEK cells assessed as [35S]GTPgammaS binding after 60 mins by trilux scintillation counting analysis relative to control
Type: functional, cell-based, HEK293
QUANTITY: pEC50
Recall that pEC50 is obtained by taking minus log10 of the concentration measured in molar.

Inquiry: I am curious: what pEC50 value has been reported for Cc1ccc(-c2ccc([C@H](CO)NC(=O)[C@H]3C[C@@H]3c3cccs3)cc2)cc1 ?
Reply text: 6.62

* * *

Assay: Drug uptake in rat CSF at 30 mg/kg, ip after 30 mins
Format: ADME, organism-based, Cerebrospinal fluid
Design: dose 30 mg/kg, route intraperitoneal
Details: read-out: Drug uptake
QUANTITY: concentration at 0.5 h (nM)
Number in nM, nothing else.

Inquiry: I am curious: what concentration at 0.5 h value has been reported for CC[C@H](C)COc1ccc([C@H](CO)NC(=O)[C@H]2C[C@@H]2c2cccs2)cc1 ?
Reply text: 5.7
